- test_target: UniProtKB P08183
- Sequence (P08183 whole entry): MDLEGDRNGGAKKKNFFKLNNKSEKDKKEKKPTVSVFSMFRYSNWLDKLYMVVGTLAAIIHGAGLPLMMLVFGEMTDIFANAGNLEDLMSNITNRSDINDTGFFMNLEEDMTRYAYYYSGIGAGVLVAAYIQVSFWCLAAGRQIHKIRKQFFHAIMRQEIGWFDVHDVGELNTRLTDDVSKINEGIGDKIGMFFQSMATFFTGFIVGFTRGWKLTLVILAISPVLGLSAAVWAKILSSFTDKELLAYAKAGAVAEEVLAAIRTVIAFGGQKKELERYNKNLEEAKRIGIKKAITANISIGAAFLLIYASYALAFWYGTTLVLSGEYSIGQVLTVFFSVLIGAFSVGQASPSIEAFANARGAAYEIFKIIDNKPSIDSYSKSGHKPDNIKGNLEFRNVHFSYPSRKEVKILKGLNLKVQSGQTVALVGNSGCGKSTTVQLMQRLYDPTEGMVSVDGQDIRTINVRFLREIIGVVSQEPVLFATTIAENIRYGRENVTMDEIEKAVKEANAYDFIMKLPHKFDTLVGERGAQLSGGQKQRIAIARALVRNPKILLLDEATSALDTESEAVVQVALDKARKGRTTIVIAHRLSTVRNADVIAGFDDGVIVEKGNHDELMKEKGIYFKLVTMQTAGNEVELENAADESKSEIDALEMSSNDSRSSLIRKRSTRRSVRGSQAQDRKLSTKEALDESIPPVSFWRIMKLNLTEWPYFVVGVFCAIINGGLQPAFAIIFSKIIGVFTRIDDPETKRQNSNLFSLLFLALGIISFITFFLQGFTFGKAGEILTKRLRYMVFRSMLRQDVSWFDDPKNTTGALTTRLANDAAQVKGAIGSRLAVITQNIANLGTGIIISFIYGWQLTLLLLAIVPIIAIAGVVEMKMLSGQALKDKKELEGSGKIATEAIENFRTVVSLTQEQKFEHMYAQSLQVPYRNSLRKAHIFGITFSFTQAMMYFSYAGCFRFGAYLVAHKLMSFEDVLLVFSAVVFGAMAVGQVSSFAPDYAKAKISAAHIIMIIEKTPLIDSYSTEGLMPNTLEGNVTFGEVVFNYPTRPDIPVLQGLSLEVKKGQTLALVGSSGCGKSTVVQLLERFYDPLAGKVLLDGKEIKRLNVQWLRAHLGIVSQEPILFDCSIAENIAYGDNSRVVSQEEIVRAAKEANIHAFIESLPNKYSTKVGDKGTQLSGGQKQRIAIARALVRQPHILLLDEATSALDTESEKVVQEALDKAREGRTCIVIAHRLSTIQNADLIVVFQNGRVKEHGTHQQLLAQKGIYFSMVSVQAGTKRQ
- method_notes: Inhibition of MDR1 expressed in MDCK2 cells at 10 uM by calcein AM accumulation assay
- Assay type: cell-based, MDCK-II
- test_conditions: dog, MDCK2 cells expressing MDR1, probe calcein AM
Task for the reader: assign each of the following compounds its reported inhibition at 10 µM.
Kindly provide the numeric value in % only, without the unit symbol.

Query string: Form field: inhibition at 10 µM recorded for CCCCCn1cc(C(=O)NC23CC4CC(CC(C4)C2)C3)c(=O)c(-c2ccncc2)c1C with UniProtKB P08183 (enter value)
Result string: 33.7

Query string: Queued: CCCCCn1cc(C(=O)NC23CC4CC(CC(C4)C2)C3)c(=O)cc1C(C)(C)C
Result string: 94.5

----------
- test_target: Cannabinoid receptor 2 (Homo sapiens, UniProt P34972)
- Sequence (P34972 whole entry): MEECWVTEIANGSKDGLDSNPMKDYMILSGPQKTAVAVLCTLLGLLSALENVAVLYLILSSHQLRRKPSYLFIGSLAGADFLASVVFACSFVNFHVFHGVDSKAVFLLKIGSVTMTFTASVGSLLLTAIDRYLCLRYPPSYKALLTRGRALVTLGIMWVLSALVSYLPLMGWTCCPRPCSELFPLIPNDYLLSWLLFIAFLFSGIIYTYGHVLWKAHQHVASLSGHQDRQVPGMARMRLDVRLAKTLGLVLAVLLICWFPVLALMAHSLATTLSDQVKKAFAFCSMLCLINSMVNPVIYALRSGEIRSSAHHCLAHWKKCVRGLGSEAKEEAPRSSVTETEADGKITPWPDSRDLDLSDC
- method_notes: Agonist activity at human recombinant CB2 receptor expressed in CHO cells membrane by [35S]-GTPgammaS assay
quantity_measured: EC50
Give the number first and the unit second.

Query string: Could you share which EC50 value was measured for CCCCCn1cc(C(=O)NC23CC4CC(CC(C4)C2)C3)c(=O)c(-c2ccncc2)c1C ?
Result string: 114 nM

Query string: Queued: Cc1cc(=O)c(C(=O)NC23CC4CC(CC(C4)C2)C3)cn1CCCC(F)(F)F
Result string: 17.3 nM

Query string: Queued: CCCCCn1cc(C(=O)NCC23CC4CC(CC(C4)C2)C3)c(=O)cc1C(C)(C)C
Result string: 49.2 nM

Query string: Queued: CCCCCn1cc(C(=O)NCC2CC2)c(=O)cc1C(C)(C)C
Result string: 27.8 nM

Query string: Queued: CCCCCn1cc(C(=O)NC(C)C23CC4CC(CC(C4)C2)C3)c(=O)cc1C (racemic)
Result string: 84.2 nM

Query string: Queued: Cc1cc(=O)c(C(=O)NC23CC4CC(CC(C4)C2)C3)cn1CC1CCOCC1
Result string: 47.4 nM

Query string: Queued: CCCCCn1cc(C(=O)NC23CC4CC(CC(C4)C2)C3)c(=O)c(C2CC2)c1C
Result string: 88.5 nM

Query string: Queued: CCCCCn1cc(C(=O)NCC23CC4CC(CC(C4)C2)C3)c(=O)cc1C
Result string: 53.1 nM

Query string: Queued: CCCCCn1cc(C(=O)Nc2ccccc2)c(=O)cc1C(C)(C)C
Result string: 8.3 nM

Query string: Queued: CCCCCn1cc(C(=O)NC2C3CC4CC(C3)CC2C4)c(=O)cc1C(C)(C)C (stereo not given)
Result string: 452 nM

Query string: Queued: CCCCCn1cc(C(=O)NC2CCCCC2)c(=O)cc1C
Result string: 49.9 nM

Query string: Queued: CCCCCn1cc(C(=O)NC(C)C23CC4CC(CC(C4)C2)C3)c(=O)cc1C(C)(C)C (racemic)
Result string: 47.1 nM

Query string: Queued: CCCCCn1cc(C(=O)NC23CC4CC(CC(C4)C2)C3)c(=O)c(I)c1C
Result string: 11.9 nM

Query string: Queued: CCCCCn1cc(C(=O)NC2C3CC4CC(C3)CC2C4)c(=O)cc1C (stereo not given)
Result string: 38.4 nM

Query string: Queued: CCCCCn1cc(C(=O)NC23CC4CC(CC(C4)C2)C3)c(=O)c(-c2ccc(CC)cc2)c1C
Result string: 39.9 nM

Each recorded value in this set is attributed to ChEMBL document CHEMBL2169827.
